Molecular target: Proteasome component C5 (Homo sapiens)
Sequence (whole entry): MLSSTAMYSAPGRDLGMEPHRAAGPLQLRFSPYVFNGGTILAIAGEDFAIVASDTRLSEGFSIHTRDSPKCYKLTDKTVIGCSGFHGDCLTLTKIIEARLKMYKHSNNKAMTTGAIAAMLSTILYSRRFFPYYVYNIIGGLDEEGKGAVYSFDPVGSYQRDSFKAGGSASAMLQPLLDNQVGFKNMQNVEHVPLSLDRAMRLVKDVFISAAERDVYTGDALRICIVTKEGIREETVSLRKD
Experiment: Inhibition of caspase like activity of 26S proteasome beta 1 subunit in human U266 cells assessed as residual activity using […] as substrate at 10 uM preincubated for 1 hr followed by substrate addition and measured after 4 hrs by fluorescence assay relative to control
Type: cell-based
metric: Activity (%)

Below: 6 compounds and their reported Activity.
{"columns": ["compound", "Activity (%)"],
 "data": [
  ["CC(C)CC(C=O)NC(=O)[C@H](CC(C)C)NC(=O)c1cc(Cl)ccc1OCc1ccccc1 (some centres undefined)", 35.3],
  ["CC(C)CC(C=O)NC(=O)[C@H](Cc1ccccc1)NC(=O)c1cc(Cl)ccc1OCc1ccccc1 (some centres undefined)", 39.9],
  ["CC(C)C[C@H](NC(=O)c1cc(Cl)ccc1OCc1ccccc1)C(=O)N[C@@H](CC(C)C)C(=O)NC(C=O)Cc1ccccc1 (some centres undefined)", 66.2],
  ["O=C[C@H](Cc1ccccc1)NC(=O)[C@H](Cc1ccccc1)NC(=O)c1cc(Cl)ccc1OCc1ccccc1", 71.5],
  ["CC(C)CC(C=O)NC(=O)[C@H](CC(C)C)NC(=O)[C@H](CC(C)C)NC(=O)c1cc(Cl)ccc1OCc1ccccc1 (some centres undefined)", 39.2],
  ["CC(C)C[C@@H](C=O)NC(=O)c1cc(Cl)ccc1OCc1ccccc1", 68.2]
]}

[P] CC(C)C[C@@H](C=O)NC(=O)[C@H](Cc1ccccc1)NC(=O)[C@H](CC(C)C)NC(=O)c1cc(Cl)ccc1O
[Q] O=C[C@H](Cc1ccccc1)NC(=O)c1cc(Cl)ccc1OCc1ccccc1
[R] CC(C)C[C@H](NC(=O)c1cc(Cl)ccc1OCc1ccccc1)C(=O)N[C@@H](Cc1ccccc1)C(=O)N[C@@H](C=O)CC(C)C
[S] CC(C)C[C@H](NC(=O)[C@H](Cc1ccccc1)NC(=O)c1cnccn1)B(O)O
(Q) Given 4 compounds, produce a descending ranking by Activity. Write the labels, ordered according to the request.
(A) Q, P, R, S
(Q: 53%, P: 28.9%, R: 19.7%, S: 0%)

[A] CC(C)C[C@H](NC(=O)c1cc(Cl)ccc1OCc1ccccc1)C(=O)N[C@@H](CC(C)C)C(=O)N[C@@H](C=O)CC(C)C
[B] CC(C)CC(C=O)NC(=O)[C@H](Cc1ccccc1)NC(=O)[C@H](CC(C)C)NC(=O)c1cc(Cl)ccc1OCc1ccccc1 (some centres undefined)
(Q) For the pair A and B , which member has the lower Activity number? Your answer should be the label attached to the chosen record.
(A) A

---

Molecular target: Proteasome Macropain subunit MB1 (Homo sapiens) (UniProt P28074)
Sequence (P28074 whole entry): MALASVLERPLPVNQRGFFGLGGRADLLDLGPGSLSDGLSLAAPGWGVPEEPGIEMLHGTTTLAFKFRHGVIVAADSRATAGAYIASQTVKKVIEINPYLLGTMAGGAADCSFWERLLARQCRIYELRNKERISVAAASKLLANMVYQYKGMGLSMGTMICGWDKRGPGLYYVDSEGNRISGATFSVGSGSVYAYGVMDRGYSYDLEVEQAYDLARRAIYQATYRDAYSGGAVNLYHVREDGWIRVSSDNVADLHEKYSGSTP
Experiment: Inhibition of chymotrypsin like activity of 26S proteasome beta 5 subunit in human U266 cells assessed as residual activity using N-Suc-LLVY-AMC as substrate at 10 uM preincubated for 1 hr followed by substrate addition and measured after 4 hrs by fluorescence assay relative to control
Format: cell-based
metric: Activity (%)

[A] CC(C)C[C@H](NC(=O)c1cc(Cl)ccc1OCc1ccccc1)C(=O)N[C@@H](CC(C)C)C(=O)N[C@@H](C=O)CC(C)C
[B] O=C[C@H](Cc1ccccc1)NC(=O)c1cc(Cl)ccc1OCc1ccccc1
[C] CC(C)C[C@H](NC(=O)c1cc(Cl)ccc1OCc1ccccc1)C(=O)N[C@@H](Cc1ccccc1)C(=O)N[C@H](C=O)Cc1ccccc1
(Q) Quick one: which order do the items above go in by Activity, smallest to largest? Give your ranking as a list of the labels in the requested order.
(A) A, C, B
(A: 18%, C: 25.8%, B: 70.8%)
